Hello, the source for this data is patent US12404263B2, in case you need it.

Molecular target: ASK1 T838 auto phosphorylation (Homo sapiens)
Construct: transfected with 9 μg of ASK1-V5 tagged full length plasmid; expressed in transfected cells; host or cells: HEK-293T
Sequence (Q99683 whole entry): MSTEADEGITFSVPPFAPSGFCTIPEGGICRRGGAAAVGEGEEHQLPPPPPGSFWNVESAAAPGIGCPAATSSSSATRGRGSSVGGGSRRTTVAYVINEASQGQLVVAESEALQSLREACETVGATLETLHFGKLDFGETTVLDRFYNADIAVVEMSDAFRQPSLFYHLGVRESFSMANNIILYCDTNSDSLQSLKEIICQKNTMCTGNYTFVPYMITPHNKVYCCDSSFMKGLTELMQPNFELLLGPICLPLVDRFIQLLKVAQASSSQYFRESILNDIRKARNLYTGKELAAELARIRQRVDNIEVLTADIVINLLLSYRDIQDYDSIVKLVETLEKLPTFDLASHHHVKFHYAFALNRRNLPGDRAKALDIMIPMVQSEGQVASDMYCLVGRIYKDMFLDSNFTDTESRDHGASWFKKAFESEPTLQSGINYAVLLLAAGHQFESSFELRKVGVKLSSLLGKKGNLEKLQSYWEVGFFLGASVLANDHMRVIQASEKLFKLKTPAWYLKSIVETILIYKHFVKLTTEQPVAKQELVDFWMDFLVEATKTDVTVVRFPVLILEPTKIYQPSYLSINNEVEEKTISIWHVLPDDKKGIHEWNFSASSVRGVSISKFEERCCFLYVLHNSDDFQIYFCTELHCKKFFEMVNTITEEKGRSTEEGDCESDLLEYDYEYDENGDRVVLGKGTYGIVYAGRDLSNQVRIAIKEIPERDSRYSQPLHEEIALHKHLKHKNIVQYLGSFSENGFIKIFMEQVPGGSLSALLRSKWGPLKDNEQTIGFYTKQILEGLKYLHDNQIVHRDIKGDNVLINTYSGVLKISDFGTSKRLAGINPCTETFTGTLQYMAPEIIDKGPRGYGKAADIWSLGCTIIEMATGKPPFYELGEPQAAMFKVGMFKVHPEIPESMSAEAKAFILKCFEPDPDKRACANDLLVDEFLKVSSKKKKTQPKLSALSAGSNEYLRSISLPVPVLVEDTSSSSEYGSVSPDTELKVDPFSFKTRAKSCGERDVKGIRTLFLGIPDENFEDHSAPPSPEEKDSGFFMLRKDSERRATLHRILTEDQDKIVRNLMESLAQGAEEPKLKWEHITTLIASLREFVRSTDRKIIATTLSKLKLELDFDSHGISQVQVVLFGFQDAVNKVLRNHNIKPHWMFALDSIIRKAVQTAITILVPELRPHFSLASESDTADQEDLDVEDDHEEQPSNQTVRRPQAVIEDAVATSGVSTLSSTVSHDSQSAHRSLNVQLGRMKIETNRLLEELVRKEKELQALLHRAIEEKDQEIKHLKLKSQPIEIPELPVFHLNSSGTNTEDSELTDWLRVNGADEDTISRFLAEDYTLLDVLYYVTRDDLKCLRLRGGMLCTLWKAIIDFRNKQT
Test: ASK1 (AUTO PHOS T838) assay in HEK-293T cells, MSD format
Format: cell-based
Settings: HEK-293T cells transfected with ASK1-V5, 1 hr compound incubation; read-out: IC50
Protocol: ASK1 T838 auto phosphorylation was measured in HEK-293T cells using MSD assay format. HEK 293T cells were seeded in 15 cm plates at a density of 18 million cells and 20 mL DMEM with 10% FBS, Pen/Strep media. The plates were incubated at 37° C. overnight. […] Cells were trypsinized, counted on Nexcellometer and plated into 96 well tissue culture plates with 100,000 cells/well and 200 μL media. […] Plates were washed 3× and 150 μL of 2×MSD Read buffer was added to wells. […]
pIC50: −log10 of the molar value.
result.type: pIC50

Enquiry: Name the recorded pIC50 of the item `COc1ncccc1C(=O)Nc1cccc(-c2nncn2[C@@H](C)C(C)C)n1` in your answer.
Return: ≥ 6.00

Enquiry: Identify the reported pIC50 for the following entry. COc1ncccc1C(=O)Nc1cccc(-c2nncn2[C@@H](C)C(F)F)n1 (single isomer, unassigned) [Compound 15b]
Return: ≥ 6.00

Enquiry: Please give the documented pIC50 of `COc1ncc(Br)cc1C(=O)Nc1cccc(-c2nncn2[C@@H](C)C(F)(F)F)n1`
Return: ≥ 6.00

Enquiry: Please supply the value of reported pIC50 for the item COc1ncccc1C(=O)Nc1cccc(-c2nncn2[C@H]2CCC2(F)F)n1 (single isomer, unassigned)
Return: ≥ 6.00
